Items are presented alongside their recorded EC50-#2 (M), HEK-Blue reporter.
- target_entity: T1, IL-18 receptor (IL-18Rα / IL-18Rβ heterodimer) on HEK-Blue IL-18 reporter cells (UniProt Q13478 19-541; O95256 20-599, limits assumed)
- T1 sequence (looked up) 1: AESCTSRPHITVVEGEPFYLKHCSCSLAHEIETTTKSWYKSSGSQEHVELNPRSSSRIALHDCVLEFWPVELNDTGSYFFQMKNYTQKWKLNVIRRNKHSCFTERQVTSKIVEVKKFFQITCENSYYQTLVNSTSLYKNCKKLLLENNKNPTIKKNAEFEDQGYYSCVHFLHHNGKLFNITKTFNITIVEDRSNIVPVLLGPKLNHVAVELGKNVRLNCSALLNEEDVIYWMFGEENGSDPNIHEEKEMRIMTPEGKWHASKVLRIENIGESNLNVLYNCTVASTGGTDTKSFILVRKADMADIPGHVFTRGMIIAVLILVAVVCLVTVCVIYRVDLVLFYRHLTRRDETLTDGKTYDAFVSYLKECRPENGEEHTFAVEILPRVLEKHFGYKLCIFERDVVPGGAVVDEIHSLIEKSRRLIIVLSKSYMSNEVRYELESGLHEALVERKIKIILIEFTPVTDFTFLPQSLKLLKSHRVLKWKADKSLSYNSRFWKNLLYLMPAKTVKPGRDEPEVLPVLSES
- T1 sequence (looked up) 2: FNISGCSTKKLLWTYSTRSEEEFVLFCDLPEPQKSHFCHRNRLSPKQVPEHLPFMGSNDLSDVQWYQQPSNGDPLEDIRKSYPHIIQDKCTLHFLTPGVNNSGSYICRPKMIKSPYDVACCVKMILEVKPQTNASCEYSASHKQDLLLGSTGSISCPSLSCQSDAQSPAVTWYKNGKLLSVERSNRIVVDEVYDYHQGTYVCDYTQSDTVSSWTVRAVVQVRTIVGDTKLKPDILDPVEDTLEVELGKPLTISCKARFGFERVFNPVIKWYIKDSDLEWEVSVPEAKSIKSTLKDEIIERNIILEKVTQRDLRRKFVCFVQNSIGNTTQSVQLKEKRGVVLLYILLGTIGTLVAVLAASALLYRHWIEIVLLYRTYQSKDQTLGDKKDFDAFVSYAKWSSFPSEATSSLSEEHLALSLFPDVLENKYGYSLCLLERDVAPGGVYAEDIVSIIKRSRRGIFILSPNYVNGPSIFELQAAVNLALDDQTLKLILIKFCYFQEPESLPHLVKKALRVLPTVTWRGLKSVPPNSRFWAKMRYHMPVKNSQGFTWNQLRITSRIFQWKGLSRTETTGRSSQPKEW
- experiment_description: cell-based or functional assay
Numeric answer only, unit M assumed.

Give the reported value of EC50-#2 (M), HEK-Blue reporter for this record: SEQ ID NO: 89 (second generation human DR-IL-18 variant 6-12) (ligand, Engineered variant; recombinant soluble analyte in SPR and cell assays) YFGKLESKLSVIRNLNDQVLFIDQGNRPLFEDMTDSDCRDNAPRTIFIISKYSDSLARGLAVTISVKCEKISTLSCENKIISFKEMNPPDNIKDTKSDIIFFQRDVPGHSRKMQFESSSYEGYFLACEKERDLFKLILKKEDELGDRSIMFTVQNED 5.44e-11

Identify EC50-#2 (M), HEK-Blue reporter associated with the binder SEQ ID NO: 20 (SEQ ID NO: 89 plus C38S/C68E) (ligand) YFGKLESKLSVIRNLNDQVLFIDQGNRPLFEDMTDSDSRDNAPRTIFIISKYSDSLARGLAVTISVKEEKISTLSCENKIISFKEMNPPDNIKDTKSDIIFFQRDVPGHSRKMQFESSSYEGYFLACEKERDLFKLILKKEDELGDRSIMFTVQNED 1.62e-10

Note down EC50-#2 (M), HEK-Blue reporter recorded for SEQ ID NO: 17 (SEQ ID NO: 89 plus C38S/C68A) (ligand) YFGKLESKLSVIRNLNDQVLFIDQGNRPLFEDMTDSDSRDNAPRTIFIISKYSDSLARGLAVTISVKAEKISTLSCENKIISFKEMNPPDNIKDTKSDIIFFQRDVPGHSRKMQFESSSYEGYFLACEKERDLFKLILKKEDELGDRSIMFTVQNED 1.09e-10

Sourced from patent US20230277625A1
